Measured TGI, listed per entry.
Tested on: SF-268 CNS
PROCEDURE TEXT: NCI tumour cell line growth inhibition, 48 h
MEASURED ENDPOINT: TGI

{"COMPOUND": "COc1ccc(/C(=N/O)c2ccccc2C2=Nc3ccccc3C(NCc3ccccc3)O2)cc1C (stereo not drawn)", "EXPERIMENTAL VALUE": "> 100 µM"}
{"COMPOUND": "COC1C(O)C(C)OC(O[C@H]2CC[C@@]3(C)C(CC[C@@H]4[C@@H]3CC[C@]3(C)[C@@H](C(C)OC5OC(CO)C(O)C(O)C5O)CC[C@]43O)C2)C1O (stereo partly drawn)", "EXPERIMENTAL VALUE": "> 25 µM"}
{"COMPOUND": "O=C(CC12C3C4C1C1C2C3C41CC(=O)NO)NO (stereo not drawn)", "EXPERIMENTAL VALUE": "> 100 µM"}
{"COMPOUND": "[N-]=[N+]=Nc1cc(=O)[nH]c2ccccc12", "EXPERIMENTAL VALUE": "> 100 µM"}
{"COMPOUND": "Cc1cc(I)cc(CN(C)CCCN2CCC(C)CC2)c1O", "EXPERIMENTAL VALUE": "27.7 µM"}
{"COMPOUND": "NS(=O)(=O)c1ccc(-n2nc3c(c2-c2cccs2)Cc2ccccc2-3)cc1", "EXPERIMENTAL VALUE": "> 100 µM"}
{"COMPOUND": "CCC[N+](C)(C)CCCNC(=O)c1c(O)c2ccccc2[nH]c1=O", "EXPERIMENTAL VALUE": "> 100 µM"}
{"COMPOUND": "Cc1ccc(/C=c2\\c(=O)[nH]c3nc4ccccc4c(=O)n23)cc1", "EXPERIMENTAL VALUE": "> 100 µM"}

----------
Tested on: TK-10 renal
PROCEDURE TEXT: NCI tumour cell line growth inhibition, 48 h; in the data active = GI50 below about 0.43 µM; inactive = the rest
Possible outcomes: 1 for active, 0 for inactive

{"COMPOUND": "CCN1CCN(C(=O)[C@]23CC[C@@H](C)[C@H](C)[C@@H]2C2=CC[C@@H]4[C@@]5(C)CCC(=O)C(C)(C)[C@@H]5CC[C@@]4(C)[C@]2(C)CC3)CC1", "DISCRETE LABEL": 0}
{"COMPOUND": "COc1cc2ncnc(Oc3ccc(NC(=O)Nc4ccc(CN5CCOCC5)c(C(F)(F)F)c4)c4ccccc34)c2cc1OC", "DISCRETE LABEL": 0}
{"COMPOUND": "N#C/C(=C\\c1ccc[nH]1)c1cc(-c2ccc(Cl)cc2)nn1-c1ccccc1", "DISCRETE LABEL": 0}
{"COMPOUND": "O=C1/C=C/[C@@H](O)[C@@H]2C[C@@H](O)C[C@H]2/C=C/CCC[C@H](CCO)O1", "DISCRETE LABEL": 1}
{"COMPOUND": "Cc1nnc(N/N=C/c2ccc([N+](=O)[O-])o2)[nH]c1=O", "DISCRETE LABEL": 0}
{"COMPOUND": "O=C1C=CC2C3C(=O)N(c4ccccc4)C(=O)C3C1N2Cc1ccccc1 (configuration not stated)", "DISCRETE LABEL": 0}
{"COMPOUND": "CC(=O)C1=C(C)N(Cc2ccccc2)C2(O)C=CC(=O)C3=C(O)c4ccccc4C(=O)C312 (configuration not stated)", "DISCRETE LABEL": 0}
